# Method Notes: binders of probe aHhip on microarray, primary screen, stem cell growth factor project, biochemical, small-molecule microarray, fluorescence 635/667 (AID 1087);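 also: score merges spot fluorescence at 667nm with spot signal to noise ratio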
# Conditions Used: higher = more signal
Some compounds, each annotated with its measured composite z-score.

Compound	composite z-score
CCCN1C(=O)[C@]2(Cc3ccccc31)N=C(c1ccc(OCCCO)cc1)O[C@@H]2c1ccccc1	0.22
O=C(O)[C@@H]1[C@@H]2C(=O)N(c3ccccc3)C(=O)[C@@H]2C[C@@H]1Sc1ccccc1	0.0505
C=C[C@H]1C(C(=O)OCC)=CC[C@@H](c2ccccc2)N1S(=O)(=O)c1ccc(C)cc1	-0.266
COCC(=C=CC[C@H](O)c1ccc(CO)o1)CCO	0.382
C=CCC(OC(C)=O)[C@@H]1[C@@H](N(Cc2cc3ccccc3o2)C(=O)Cc2ccc(F)cc2)c2cc(OCCCO)ccc2N1C(=O)Cc1ccc2ccccc2c1 (stereo not given in full)	-0.306
COC(=O)[C@@]1(Cc2ccc(F)cc2)[C@H]2c3cc(C(=O)N4CCCC4)n(CCc4c[nH]c5ccccc45)c3C[C@H]2CN1C(=O)c1ccccc1	0.245
CC(C)c1ccc(NN2C(C(O)c3ccc(F)cc3)C=CC3C(=O)N(c4ccccc4)C(=O)C32)cc1 (stereo not given)	-0.118
O=C1C[C@]2(c3ccc([N+](=O)[O-])cc3)C(=O)N(C3CC3)c3cc(CO)ccc3[C@H]2N1CC12CC3CC(CC(C3)C1)C2	-0.258
C[C@@H]1NC(=O)[C@@H](Cc2ccccc2)NC(=O)[C@@]23C(=O)N[C@@H](Cc4ccccc4)C2[C@H](C)[C@@]2(C)O[C@H]2C3/C=C/C/C=C\CNC1=O (stereo not given in full)	-0.249
C=CCOC(=O)[C@@H]1[C@H]2C(=O)O[C@H](c3ccccc3)[C@H](c3ccccc3)N2[C@H](c2ccc(OCCOC(=O)[C@@H]3C[C@@H]4C(=O)N[C@@H](CCCC[N+](C)(C)C)C(=O)N4[C@@H]3c3ccc(O)cc3)cc2)[C@@]12C(=O)Nc1ccc(I)cc12	-0.16
Oc1ccc2cc[n+](Cc3cc4c(cc3Br)OCO4)cc2c1	-0.236
[N-]=[N+]=Nc1ccccc1C[C@@]1(C(=O)NCCN2CCOCC2)N=C(c2ccc(OCCCO)cc2)O[C@@H]1c1ccccc1N=[N+]=[N-]	0.122
COC(=O)c1c(CC[C@@H](CO)NC(=O)N2CCC[C@H]2Cn2cc(C3(O)CCCCC3)nn2)oc(C(C)=O)c1C(=O)OC	-0.201
COc1ccc(CCNC(=O)[C@@]2(c3ccc([N+](=O)[O-])cc3)CC(=O)N(C3CCCCC3)[C@@H]2c2ccc(CO)cc2)cc1	0.177
[N-]=[N+]=Nc1ccccc1C[C@]1(C(=O)O)COC(c2ccc(OCCCO)cc2)=N1	0.419
CC1=C2[C@@H](CCc3ccccc3)OB(O)C[C@@H]2[C@@H]2C(=O)N(Cc3ccccc3)C(=O)[C@@H]2C1	-0.0618
CC1CC/C=C\[C@H]2OC34C=CCN(c5ccc6ccccc6c5)C(=O)[C@H]3N(CCCO)C(=O)[C@@H]4C2C(=O)O1 (stereo not given in full)	-0.19
CCCCCN1CC=CC23O[C@@H]4/C=C\CCC(C)OC(=O)C4[C@H]2C(=O)N(C(CO)C(C)C)[C@@H]3C1=O (stereo not given in full)	-0.457
CC(C)(C)OC(=O)CC[C@@]1(C(=O)NCC(O)CO)N=C(c2ccc(OCCCO)cc2)O[C@@H]1c1ccccc1CN=[N+]=[N-] (stereo not given in full)	-0.0994
CCCC[C@@H](O)C1=C(COC)C[C@H]2C(=O)N(Cc3ccccc3)C(=O)[C@H]2[C@H]1CO	-0.0645
O=C(NCCN1CCOCC1)[C@@H]1c2ccccc2C(=O)N(Cc2ccccc2Cl)[C@H]1c1ccc(CO)cc1	-0.391
CCOC(=O)C[C@H]1[C@H](OC(=O)c2ccc(C(=O)c3ccccc3)cc2)[C@@H](NC(=O)c2ccc(-c3ccccc3)cc2)c2cc(OCCCO)ccc2N1C(=O)Cc1ccc(OC)cc1	0.0976
O=C(C1N=C(c2ccc(OCCCO)cc2)N(c2ccccc2)O1)N1CCCCC1 (stereo not given)	-0.0952
CCOC(=O)C[C@H]1[C@H](OC(=O)c2ccccc2-c2ccccc2)[C@@H](NC(=O)c2ccc3ccccc3n2)c2cc(OCCCO)ccc2N1C(=O)Cc1ccc(OC)cc1	-0.142
O=c1cccc(-c2ccc([N+](=O)[O-])cc2)o1	-0.0263
Cc1ccc(S[C@]2(C(=O)NCc3ccccc3)CC(=O)N(C3CCCCC3)[C@@H]2c2ccc(CO)cc2I)cc1	-0.132
CC(C)(C)OC(=O)COc1cccc(C(=O)CCN2CCOCC2)c1	-0.243
[N-]=[N+]=Nc1ccccc1C[C@@]1(C(=O)N2CCOCC2)N=C(c2ccc(OCCCO)cc2)O[C@@H]1c1ccccc1	-0.112
CCCC=C(CCC)[C@@H](NS(=O)(=O)CC12CCC(CC1=O)C2(C)C)c1ccc(C(=O)OC)cc1 (stereo not given in full)	0.274
Cc1ccc(S[C@]2(C(=O)O)CC(=O)N(C3CCCCC3)[C@@H]2c2ccc(CO)cc2I)cc1	-0.0898

Origin of the recorded values: PubChem BioAssay
